molecular target: Shiga toxin 1 (Stx1) (Escherichia coli O157:H7) (UniProt P08026); assay: SPR, Stx1 immobilised
Sequence (P08026 23-315): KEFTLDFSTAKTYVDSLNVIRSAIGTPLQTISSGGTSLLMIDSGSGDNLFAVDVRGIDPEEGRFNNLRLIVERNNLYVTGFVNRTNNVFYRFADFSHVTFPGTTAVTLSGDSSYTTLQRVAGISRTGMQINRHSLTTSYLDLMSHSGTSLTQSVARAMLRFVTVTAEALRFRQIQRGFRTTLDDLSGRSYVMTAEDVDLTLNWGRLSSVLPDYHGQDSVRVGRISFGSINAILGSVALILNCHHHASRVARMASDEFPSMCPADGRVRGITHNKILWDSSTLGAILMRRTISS
measure: Kd (nM)

1. Stx1-A9 (VHH) VHH: QVQLVETGGGLAQAGDSLRLSCVEPGRTLDMYAMGWIRQAPGEEREFVASISGVGGSPRYADSVKGRFTISKDNTKSTIWLQMNSLKPEDTAVYYCAAGGDIYYGGSPQWRGQGTRVTVSS	7.6
2. A5/D10 heterodimer VNA (designed binder) QVQLVESGGGLVQPGGSLRLSCAALEFTLEDYAIAWFRQAPGKEREGVSCISKSGVTKYTDSVKGRFTVARDNAKSTVILQMNNLRPEDTAVYNCAAVRPVFVDSVCTLATRYTYWGEGTQVTVSSAHHSEDPGGGGSGGGGSGGGGSQVQLVETGGLVQAGGSLRLSCAASGVPFSDYTMAWFRQAPGKEREVVARITWRGGGPYYGNSGNGRFAISRDIAKSMVYLHMDSLKPEDTAVYYCAASRLRPALASMASDYDYWGQGTQVSVSSEPKTPKPQ	9.2
3. Stx1-D4 (VHH) VHH: QVQLVESGGGLVQAGGSLRLSCAASGRINGDYAMGWFRQAPGEEREFVAVNSWIGGSTYYTDSVKGRFTLSRDNAKNTLSLQMNSLKPEDTAVYYCAAGHYTDFPTYFKEYDYWGQGTQVTVSS	0.128
